# study.system: Serine/threonine-protein kinase PAK 2 (Homo sapiens) (UniProt Q13177)
# Sequence (Q13177 whole entry): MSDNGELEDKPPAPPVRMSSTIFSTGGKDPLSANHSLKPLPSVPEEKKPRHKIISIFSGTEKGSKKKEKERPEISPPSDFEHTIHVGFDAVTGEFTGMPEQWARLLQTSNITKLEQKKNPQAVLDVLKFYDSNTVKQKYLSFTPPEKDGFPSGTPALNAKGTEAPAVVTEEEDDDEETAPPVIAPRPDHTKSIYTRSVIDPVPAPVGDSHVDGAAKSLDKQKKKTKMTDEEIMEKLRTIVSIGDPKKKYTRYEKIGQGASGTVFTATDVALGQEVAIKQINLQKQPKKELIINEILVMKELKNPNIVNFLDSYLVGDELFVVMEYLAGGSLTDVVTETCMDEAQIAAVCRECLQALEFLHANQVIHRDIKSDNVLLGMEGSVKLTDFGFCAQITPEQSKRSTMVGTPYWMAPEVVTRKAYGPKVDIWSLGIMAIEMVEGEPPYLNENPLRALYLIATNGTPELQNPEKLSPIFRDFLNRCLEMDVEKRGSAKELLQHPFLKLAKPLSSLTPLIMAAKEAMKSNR
# assay.method.text: Enzymatic radiometric [Km ATP] KinaseProfiler LeadHunter assay, kinase: PAK2, catalogue number: 14-481KP The assay has been performed by Eurofins Discovery.
# test.conditions: ATP concentration 90.0 uM, Test compound concentration 10.0 uM
We begin with a simple list: items and their reported Activity.
Return type: number; implicit unit %.

Previously resolved entries follow.
{"structure.string": "COc1ccc([C@H](Cc2nnn[nH]2)NC(=O)c2ncnc3[nH]ccc23)cc1", "measurement.unit": "%", "readout.number": 107}
{"structure.string": "CC(C)[C@H](Nc1ncnc2[nH]c(-c3cnn(C)c3C#N)cc12)c1ccc2c(n1)OCCO2", "measurement.unit": "%", "readout.number": 99}

// moving on: another record for Activity
query: Complete the entry with Activity for C[C@H](C(=O)O)[C@@H](NC(=O)c1ncnc2[nH]ccc12)c1ccc(Br)cc1
result: 95
